This collection of values is drawn from paper PMC4503959.

target: CsDOP1 (Chilo suppressalis, UniProt A0A0K0QVU3); construct: receptor in pcDNA3, stably expressed in HEK 293 cells; GPCR coupled to Gs (cAMP increase); assay: intracellular cAMP accumulation
Sequence (A0A0K0QVU3 1-409): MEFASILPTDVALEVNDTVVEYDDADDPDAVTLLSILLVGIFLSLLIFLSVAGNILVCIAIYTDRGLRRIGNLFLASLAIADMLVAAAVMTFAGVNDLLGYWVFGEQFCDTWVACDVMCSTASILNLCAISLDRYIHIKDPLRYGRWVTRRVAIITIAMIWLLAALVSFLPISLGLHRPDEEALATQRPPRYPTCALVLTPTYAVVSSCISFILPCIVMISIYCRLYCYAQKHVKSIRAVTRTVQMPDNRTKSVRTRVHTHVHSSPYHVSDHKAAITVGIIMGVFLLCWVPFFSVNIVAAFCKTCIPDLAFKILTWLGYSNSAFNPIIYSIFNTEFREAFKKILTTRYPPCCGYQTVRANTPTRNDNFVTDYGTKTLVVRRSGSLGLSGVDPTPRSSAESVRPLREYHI
property_name: EC50 (nM)
Response body: numeric value in nM, unit text excluded.

// field: EC50; key: `NCCc1ccc(O)c(O)c1` ; value = 1.93
